- Tested on: B. subtilis
- TEST_DESCRIPTION: Antimicrobial serial tube dilution, MIC and MBC
- Assay type: cell-based, Bacillus subtilis MTCC 2063
- RECORDED_CONDITIONS: Bacillus subtilis, read-out: B. subtilis MBC
METRIC_NAME: MBC (µg/mL)
API: value field is a number in µg/mL; no unit string.

| MOLECULE | OBS_VALUE |
| --- | --- |
| O=C(/C=C\c1cc(Br)ccc1O)c1ccc(N=Nc2ccc([N+](=O)[O-])cc2Cl)c(O)c1 [Compound C-22] | 7.81 |
| CC1=C(C(=O)O)N2C(=O)[C@@H](NC(=O)[C@H](N)c3ccc(O)cc3)[C@H]2SC1 [Cefadroxil, cefadroxil, reference compound] | 125 |
| CC(=O)c1ccc(O)c(N=Nc2cccc(Cl)c2Cl)c1 [Dye A] | 125 |
| O=C(/C=C/c1ccc(Cl)cc1Cl)c1ccc(O)c(N=Nc2cccc(Cl)c2Cl)c1 [Compound C-18] | 125 |
| O=C(/C=C\c1ccco1)c1ccc(N=Nc2c(O)cccc2O)cc1 [Compound C-24] | 62.5 |

q: Find the recorded MBC belonging to O=Cc1ccc(/C=C\C(=O)c2ccc(N=Nc3c(O)cccc3O)cc2)cc1 [Compound C-23] and report it.
a: 62.5

q: Find the recorded MBC belonging to O=Cc1ccc(/C=C\C(=O)c2cccc(N=Nc3cccc(Cl)c3Cl)c2O)cc1 [Compound C-25] and report it.
a: 62.5

q: Find the recorded MBC belonging to O=C(/C=C\c1cc(Br)ccc1O)c1ccc(N=Nc2c(O)cccc2O)cc1 [Compound C-21] and report it.
a: 62.5

q: Find the recorded MBC belonging to COc1ccccc1/C=C\C(=O)c1ccc(N=Nc2c(O)cccc2O)cc1 [Compound C-27] and report it.
a: 31.2

q: Find the recorded MBC belonging to CC(=O)c1ccc(N=Nc2c(O)cccc2O)cc1 [Dye E] and report it.
a: 125

q: Find the recorded MBC belonging to CO/N=C(\C(=O)N[C@@H]1C(=O)N2C(C(=O)O)=C(COC(C)=O)CS[C@H]12)c1csc(N)n1 [Cefotaxime, cefotaxime, reference compound] and report it.
a: 7.81

q: Find the recorded MBC belonging to O=C(/C=C\c1ccc(Cl)cc1Cl)c1cccc(N=Nc2cccc(Cl)c2Cl)c1O [Compound C-19] and report it.
a: 62.5

q: Find the recorded MBC belonging to O=C(/C=C\c1ccccc1[N+](=O)[O-])c1cccc(N=Nc2cccc(Cl)c2Cl)c1O [Compound C-20] and report it.
a: 125
